System: Bacillus cereus (ATCC 11778)
Experiment: MIC susceptibility test, microdilution with MTT readout
Type: cell-based
Conditions: Bacillus ceres ATCC11778
MEASURED ENDPOINT: MIC BC (µg/mL)
API: value field is a number in µg/mL; no unit string.

# MOLECULE, TEST SYSTEM, UNIT TEXT, REPORTED
data = [
    ("CCCCCCCCCCNC1(C)CC(OC2C(Oc3c4cc5cc3Oc3ccc(cc3Cl)C(O)C3NC(=O)C(NC(=O)C5NC(=O)C(CC(N)=O)NC(=O)C(NC(=O)C(CC(C)C)NC)C(O)c5ccc(c(Cl)c5)O4)c4ccc(O)c(c4)-c4c(O)cc(O)cc4C(C(=O)O)NC3=O)OC(CO)C(O)C2O)OC(C)C1O (centres unmarked) [N-decyl vancosamine vancomycin, reference compound]", "Bacillus cereus (ATCC 11778)", "µg/mL", 0.32),
]

Query string: Form field: reported MIC BC of CNC(CC(C)C)C(=O)NC1C(=O)NC(CC(N)=O)C(=O)NC2C(=O)NC3C(=O)NC(C(=O)NC(C(=O)O)c4cc(O)cc(O)c4-c4cc3ccc4O)C(O)c3ccc(c(Cl)c3)Oc3cc2cc(c3OC2OC(CSc3nc(N)n[nH]3)C(O)C(O)C2OC2CC(C)(N)C(O)C(C)O2)Oc2ccc(cc2Cl)C1O (centres unmarked)
Result string: 1.0
